Sequence of the target: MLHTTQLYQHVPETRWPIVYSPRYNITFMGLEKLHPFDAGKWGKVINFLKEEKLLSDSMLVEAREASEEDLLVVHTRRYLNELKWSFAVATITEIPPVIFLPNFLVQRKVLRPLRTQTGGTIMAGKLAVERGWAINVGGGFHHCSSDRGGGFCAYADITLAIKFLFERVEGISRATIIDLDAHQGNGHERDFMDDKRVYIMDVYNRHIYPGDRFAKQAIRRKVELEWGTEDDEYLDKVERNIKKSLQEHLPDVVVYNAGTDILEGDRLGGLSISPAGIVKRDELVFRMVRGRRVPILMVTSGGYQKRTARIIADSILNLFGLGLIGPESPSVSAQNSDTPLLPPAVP
readout-type: IC50

Give the measured IC50 for C/C=C1\NC(=O)[C@H]2CSSCC/C=C/[C@H](CC(=O)N[C@H](C(C)C)C(=O)N2)OC(=O)[C@H](C(C)C)NC1=O
> 100 µM
